Source: ChEMBL document CHEMBL1132380

# measurement_notes: Half-life in buffer at pH 7.4
# Format: ADME
// reported half-life per item

compound	half-life
COc1cccc2c1C(=O)c1c(O)c3c(c(O)c1C2=O)C[C@@](O)(C(=O)CNC(=O)OCc1ccc(OC(=O)C(C)(C)NC(=O)CCOCCOCCO)cc1)C[C@@H]3OC1CC(N)C(O)C(C)O1 (stereo not given in full)	> 48 h
COc1cccc2c1C(=O)c1c(O)c3c(c(O)c1C2=O)C[C@@](O)(C(=O)CNC(=O)OCc1ccccc1NC(=O)OCCOCCOCCO)C[C@@H]3OC1CC(N)C(O)C(C)O1 (stereo not given in full)	> 48 h
COc1cccc2c1C(=O)c1c(O)c3c(c(O)c1C2=O)C[C@@](O)(C(=O)CNC(=O)OCc1ccc(OC(=O)NCCOCCOCCO)cc1)C[C@@H]3OC1CC(N)C(O)C(C)O1 (stereo not given in full)	> 48 h
COc1cccc2c1C(=O)c1c(O)c3c(c(O)c1C2=O)C[C@@](O)(C(=O)CNC(=O)OCc1ccc(OC(=O)CCOCCOCCO)cc1)C[C@@H]3OC1CC(N)C(O)C(C)O1 (stereo not given in full)	> 24 h

Next up:
Look up half-life: COc1cc(COC(=O)NCC(=O)[C@]2(O)Cc3c(O)c4c(c(O)c3[C@@H](OC3CC(N)C(O)C(C)O3)C2)C(=O)c2c(OC)cccc2C4=O)cc(OC)c1OC(=O)CCOCCOCCO (stereo not given in full) > 48 h

----------
# Tested on: P388
# measurement_notes: Compound was evaluated for cytotoxicity against P388 leukemia cell line.
# Assay type: functional, cell-based
# stated_conditions: Mus musculus
Attribute: IC50
Report only the number, with the unit µM understood.

Can you look up the measured IC50 of COc1cccc2c1C(=O)c1c(O)c3c(c(O)c1C2=O)C[C@@](O)(C(C)=O)C[C@@H]3O[C@H]1C[C@H](N)[C@H](O)[C@H](C)O1 [DAUNORUBICIN] for me? 0.003

And what about the molecule COc1cccc2c1C(=O)c1c(O)c3c(c(O)c1C2=O)C[C@@](O)(C(=O)CNC(=O)OCc1ccc(OC(=O)NCCOCCOCCO)cc1)C[C@@H]3OC1CC(N)C(O)C(C)O1 (stereo partly specified) ? 0.015

Now consider COc1cccc2c1C(=O)c1c(O)c3c(c(O)c1C2=O)C[C@@](O)(C(=O)CNC(=O)OCc1ccccc1OC(=O)NCCOCCOCCO)C[C@@H]3OC1CC(N)C(O)C(C)O1 (stereo partly specified) and answer again. 0.035

Field entry: COc1cccc2c1C(=O)c1c(O)c3c(c(O)c1C2=O)C[C@@](O)(C(=O)CNC(=O)OCc1ccc(NC(=O)OCCOCCOCCO)cc1)C[C@@H]3OC1CC(N)C(O)C(C)O1 (stereo partly specified) 0.415

COc1cc(COC(=O)NCC(=O)[C@]2(O)Cc3c(O)c4c(c(O)c3[C@@H](OC3CC(N)C(O)C(C)O3)C2)C(=O)c2c(OC)cccc2C4=O)cc(OC)c1OC(=O)CCOCCOCCO (stereo partly specified) ? 0.027

Can you handle COc1cccc2c1C(=O)c1c(O)c3c(c(O)c1C2=O)C[C@@](O)(C(=O)CNC(=O)OCc1cc(C)c(OC(=O)CCOCCOCCO)c(C)c1)C[C@@H]3OC1CC(N)C(O)C(C)O1 (stereo partly specified) next? 0.055

----------
# measurement_notes: Half-life in rat plasma
# Assay type: ADME
quantity_kind: half-life (h)
The response must be a number in h with no trailing unit.

compound	half-life (h)
COc1cccc2c1C(=O)c1c(O)c3c(c(O)c1C2=O)C[C@@](O)(C(=O)CNC(=O)OCc1cc(C)c(OC(=O)OCCOCCOCCO)c(C)c1)C[C@@H]3OC1CC(N)C(O)C(C)O1 (stereo partly drawn)	2.9

Item under review: COc1cccc2c1C(=O)c1c(O)c3c(c(O)c1C2=O)C[C@@](O)(C(=O)CNC(=O)OCc1ccccc1OC(=O)NCCOCCOCCO)C[C@@H]3OC1CC(N)C(O)C(C)O1 (stereo partly drawn) . Reported half-life? 3

Consider next the compound COc1cccc2c1C(=O)c1c(O)c3c(c(O)c1C2=O)C[C@@](O)(C(=O)CNC(=O)OCc1ccc(OC(=O)C(C)(C)NC(=O)CCOCCOCCO)cc1)C[C@@H]3OC1CC(N)C(O)C(C)O1 (stereo partly drawn) in the same way. 1.3
